# TARGET_SYSTEM: Adenosine kinase (Homo sapiens)
# MEASUREMENT_PROTOCOL: Activity of human adenosine kinase relative to ribavirin
# Parameters: concentration or dose not given beside the values
Consider the following compounds; for each one, report its Activity.
Numbers only, in %.

{"columns": ["MOLECULAR_STRING", "TARGET_SYSTEM", "ENDPOINT_UNIT", "RECORDED_VALUE"],
 "data": [
  ["O=[N+]([O-])c1ncn([C@@H]2O[C@H](CO)[C@@H](O)[C@H]2O)n1", "Adenosine kinase (Homo sapiens)", "%", 18],
  ["C/N=C(/N)c1ncn([C@@H]2O[C@H](CO)[C@@H](O)[C@H]2O)n1", "Adenosine kinase (Homo sapiens)", "%", 5]
]}

// for each compound below, give its Activity
1. CC(=O)c1ncn([C@@H]2O[C@H](CO)[C@@H](O)[C@H]2O)n1
2. CNC(=O)c1ncn([C@@H]2O[C@H](CO)[C@@H](O)[C@H]2O)n1

[10, 9]

* * *

# TARGET_SYSTEM: Adenosine kinase (Homo sapiens)
# MEASUREMENT_PROTOCOL: Specific activity of human adenosine kinase
READOUT: Activity

Use the examples below as a reference point.
{"columns": ["MOLECULAR_STRING", "Activity"],
 "data": [
  ["O=C(O)c1ncn([C@@H]2O[C@H](CO)[C@@H](O)[C@H]2O)n1", "< 4 nmol/mg/h"],
  ["NC(=O)c1ncn([C@@H]2O[C@H](CO)[C@@H](O)[C@H]2O)n1", "203 nmol/mg/h"],
  ["COC(=N)c1ncn([C@@H]2O[C@H](CO)[C@@H](O)[C@H]2O)n1", "< 4 nmol/mg/h"],
  ["CC(=O)c1ncn([C@@H]2O[C@H](CO)[C@@H](O)[C@H]2O)n1", "20 nmol/mg/h"]
]}

Please supply Activity for each of the following items, keeping them in order.
1. CC(=O)Nc1ncn([C@@H]2O[C@H](CO)[C@@H](O)[C@H]2O)n1
2. C/N=C(/N)c1ncn([C@@H]2O[C@H](CO)[C@@H](O)[C@H]2O)n1
3. O=[N+]([O-])c1ncn([C@@H]2O[C@H](CO)[C@@H](O)[C@H]2O)n1
4. CNC(=O)c1ncn([C@@H]2O[C@H](CO)[C@@H](O)[C@H]2O)n1

["< 4 nmol/mg/h", "11 nmol/mg/h", "36 nmol/mg/h", "19 nmol/mg/h"]

* * *

Can you tell me Activity for the items I'm about to list?
# TARGET_SYSTEM: Adenosine kinase (Homo sapiens) (UniProt P55263)
# Sequence (P55263 2-362 limits assumed): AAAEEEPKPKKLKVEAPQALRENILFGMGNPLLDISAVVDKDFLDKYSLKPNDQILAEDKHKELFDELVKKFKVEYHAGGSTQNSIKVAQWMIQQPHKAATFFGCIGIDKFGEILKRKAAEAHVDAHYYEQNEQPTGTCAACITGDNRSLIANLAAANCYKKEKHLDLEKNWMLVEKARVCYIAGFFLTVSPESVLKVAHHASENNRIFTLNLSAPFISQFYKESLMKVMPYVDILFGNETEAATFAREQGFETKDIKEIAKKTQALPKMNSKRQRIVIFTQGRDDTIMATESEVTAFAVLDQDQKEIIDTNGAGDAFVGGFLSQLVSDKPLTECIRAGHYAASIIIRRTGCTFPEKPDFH
# MEASUREMENT_PROTOCOL: Activity of human adenosine kinase relative to ribavirin
# Design: concentration or dose not given beside the values

{"columns": ["MOLECULAR_STRING", "Activity"],
 "data": [
  ["O=C(O)c1ncn([C@@H]2O[C@H](CO)[C@@H](O)[C@H]2O)n1", "< 2%"],
  ["COC(=N)c1ncn([C@@H]2O[C@H](CO)[C@@H](O)[C@H]2O)n1", "< 2%"]
]}

Proceeding to the next compound to report its Activity.
Which Activity is listed for "CC(=O)Nc1ncn([C@@H]2O[C@H](CO)[C@@H](O)[C@H]2O)n1" ?
< 2%
